System: DU-145 cells
assay_protocol: Prostate cancer cell line growth inhibition assay, DU-145
Type: cell-based
condition_summary: Homo sapiens, DU-145, 72 h; read-out: DU145 GI50 (AR−)
Entries and their GI50
Lab book: enter the figure in µM, no units written.

Cc1c(-c2ccccc2F)[nH]c2ccc(CNC(=O)CCc3cn[nH]c3)cc12 :: 18

Let's switch to this molecule now.
query: Recorded GI50 for Cc1c(-c2ccc(F)cc2)[nH]c2ccc(CNC(=O)c3ccc(CO)o3)cc12 with DU-145 cells, please?
result: 24.3

----------
test_target: AR-LBD (Homo sapiens, UniProt P10275)
Construct: The pET28a-AR-LBD (622–919) construct [78] was a gift; made in house
Sequence (P10275 622-919): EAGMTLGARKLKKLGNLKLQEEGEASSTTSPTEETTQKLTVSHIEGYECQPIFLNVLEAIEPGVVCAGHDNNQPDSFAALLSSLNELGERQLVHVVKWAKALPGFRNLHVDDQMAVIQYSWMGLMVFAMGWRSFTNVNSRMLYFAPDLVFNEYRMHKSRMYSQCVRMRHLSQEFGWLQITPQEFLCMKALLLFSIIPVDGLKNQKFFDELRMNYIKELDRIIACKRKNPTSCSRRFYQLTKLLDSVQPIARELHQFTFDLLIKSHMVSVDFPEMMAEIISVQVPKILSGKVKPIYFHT
assay_protocol: H^3-DHT radioligand competition binding assay
condition_summary: 10 nM H^3-DHT, recombinant His6-AR-LBD
Entries and their pIC50
In plain terms, pIC50 is the concentration in mol/L turned into minus its base-10 logarithm.

Cc1c(-c2ccccc2F)[nH]c2ccc(CNC(=O)c3ccc(CO)o3)cc12 :: 4.20

query: Recorded pIC50 for Cc1ccccc1-c1cc(O)c2c(c1)CN(c1nc(C(N)=O)cs1)CCO2 with AR-LBD (Homo sapiens, UniProt P10275), please?
result: 4.36

----------
Tested on: DU-145 cells
assay_protocol: Prostate cancer cell line growth inhibition assay, DU-145
Assay type: cell-based
condition_summary: Homo sapiens, DU-145, 72 h; read-out: DU145 GI50 (AR−)
endpoint: GI50

Cc1ccccc1-c1cc(O)c2c(c1)CN(c1nc(C(N)=O)cs1)CCO2 [S1–1] :: > 100 µM
Cc1c(-c2ccccc2F)[nH]c2ccc(CNC(=O)c3ccc(CO)o3)cc12 [S3–14] :: > 100 µM

query: I have this compound here, Cc1nsc(NC(=O)N2CCC(F)CC2)n1 [S2–10] , and I need its recorded GI50.
result: > 100 µM

query: I have this compound here, Cc1nsc(NC(=O)N2CCC(Sc3ccccc3C)CC2)n1 [S2–6] , and I need its recorded GI50.
result: > 100 µM

query: I have this compound here, Cc1c(-c2ccccc2F)[nH]c2ccc(CNC(=O)CCc3cnccn3)cc12 [S3–12] , and I need its recorded GI50.
result: 6.82 µM

----------
Entries and their pIC50
test_target: AR-TIF2 PPI (Homo sapiens, UniProt P10275)
Construct: expressed in transfected cells; host or cells: U-2 OS osteosarcoma cells, co-infected with recombinant adenoviruses
Sequence (P10275 663-920 limits assumed): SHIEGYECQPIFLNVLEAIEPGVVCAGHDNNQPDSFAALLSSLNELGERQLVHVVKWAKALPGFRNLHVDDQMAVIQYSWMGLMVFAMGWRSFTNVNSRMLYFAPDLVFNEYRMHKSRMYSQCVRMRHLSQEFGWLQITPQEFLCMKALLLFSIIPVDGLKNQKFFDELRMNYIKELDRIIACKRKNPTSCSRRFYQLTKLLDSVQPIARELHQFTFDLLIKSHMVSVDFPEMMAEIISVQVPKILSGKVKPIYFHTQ
assay_protocol: AR-TIF2 PPI biosensor (PPIB) HCS assay, inhibition of DHT-induced AR-TIF2 PPI formation
Format: cell-based
condition_summary: U-2 OS cells; compounds 3 h prior to 25 nM DHT for 90 min
Experimental: Daughter plates containing 2 μL of the serially diluted compounds in DMSO were prepared and replicated from 384-well serial dilution master plates using a Janus MDT platform outfitted with a 384-well transfer head. […] The AR-TIF2 PPIB HCS assay was performed in U-2 OS osteosarcoma cells as described previously. […] Images were analyzed using the Translocation Enhanced (TE) image analysis module of the MetaXpress software as described previously. […]
In plain terms, pIC50 is the concentration in mol/L turned into minus its base-10 logarithm.

Some compounds with known pIC50 results, for comparison:
Cc1c(-c2ccccc2F)[nH]c2ccc(CNC(=O)c3ccc(CO)o3)cc12 :: 5.67
CC(=O)NCCC(=O)NCc1ccc2[nH]c(-c3ccccc3F)c(C)c2c1 :: 5.15
Cc1ccccc1-c1cc(O)c2c(c1)CN(c1nccs1)CCO2 :: 4.52

query: I have this compound here, Cc1c(-c2ccccc2F)[nH]c2ccc(CNC(=O)Cc3cccnc3)cc12 , and I need its recorded pIC50.
result: 4.16

query: I have this compound here, Cc1c(-c2ccc(F)cc2)[nH]c2ccc(CNC(=O)c3ccc(CO)o3)cc12 , and I need its recorded pIC50.
result: 5.29

query: I have this compound here, Cc1c(-c2ccccc2F)[nH]c2ccc(CNC(=O)CCC3=NNC(=O)CC3)cc12 , and I need its recorded pIC50.
result: 4.40
